experiment: chemical recovery from spiked human plasma; higher = better extraction; details: pooled human plasma; extraction method: SPE only (HLB 96-well)
Threshold rule: chemical recovery greater than or equal to 40% is met; below that, not met.

# COMPOUND, ASSIGNED_CATEGORY
data = [
    ("O=C(O)c1ccccc1C(=O)OCc1ccccc1 [Monobenzyl-phthalate]", "met"),
    ("Nc1ccc(Oc2ccc(N)cc2)cc1", "not met"),
    ("Cc1c(COC(=O)C2C(/C=C(\\Cl)C(F)(F)F)C2(C)C)cccc1-c1ccccc1 (stereo not drawn)", "not met"),
]

Lookup: # bool: chemical recovery of Oc1cc(Cl)ccc1Oc1ccc(Cl)cc1Cl >= 40%
Found: not met

Lookup: # bool: chemical recovery of c1cc2cccc3c4cccc5cccc(c(c1)c23)c54 >= 40%
Found: not met

###

assay: chemical recovery into PDMS from spiked human plasma; higher = better extraction; details: pooled human plasma; extraction method: PES with PDMS; equilibration time (d): 1
Threshold rule: chemical recovery into PDMS greater than or equal to 30% is met; below that, not met.

# MOLECULE, ASSIGNED_CATEGORY
measured = [
    ("c1ccc2sc(N3CCOCC3)nc2c1", "not met"),
    ("COCCN(C(=O)CS(=O)(=O)O)c1c(C)cccc1C", "not met"),
    ("Clc1ccc(C(c2ccc(Cl)cc2)C(Cl)Cl)cc1", "not met"),
]

Lookup: # bool: chemical recovery into PDMS of CC(C)c1ccc2sc3ccccc3c(=O)c2c1 >= 30%
Found: met

Lookup: # bool: chemical recovery into PDMS of CC(=O)[C@H]1CC[C@H]2[C@@H]3CCC4=CC(=O)CC[C@]4(C)[C@H]3CC[C@]12C >= 30%
Found: met

Lookup: # bool: chemical recovery into PDMS of O=C1Nc2ccc(Cl)cc2C(c2ccccc2)=NC1O (configuration not stated) >= 30%
Found: not met

Lookup: # bool: chemical recovery into PDMS of CCOP(=O)(OCC)OC(=CCl)c1ccc(Cl)cc1Cl >= 30%
Found: met

Lookup: # bool: chemical recovery into PDMS of CN(C/C=C/C#CC(C)(C)C)Cc1cccc2ccccc12 >= 30%
Found: not met

Lookup: # bool: chemical recovery into PDMS of CCCCCCCCn1sc(Cl)c(Cl)c1=O >= 30%
Found: not met

Lookup: # bool: chemical recovery into PDMS of c1ccc2ncccc2c1 >= 30%
Found: not met

Lookup: # bool: chemical recovery into PDMS of COC(=O)[C@H](c1ccccc1Cl)N1CCc2sccc2C1 >= 30%
Found: not met

Lookup: # bool: chemical recovery into PDMS of CC(C1CC1)C(O)(Cn1cncn1)c1ccc(Cl)cc1 (configuration not stated) >= 30%
Found: met

Lookup: # bool: chemical recovery into PDMS of CCCN(CCC)c1c([N+](=O)[O-])cc(S(N)(=O)=O)cc1[N+](=O)[O-] >= 30%
Found: not met

Lookup: # bool: chemical recovery into PDMS of CC(C)OC(=O)C(C)(C)Oc1ccc(C(=O)c2ccc(Cl)cc2)cc1 [Fenofibrate] >= 30%
Found: met

Lookup: # bool: chemical recovery into PDMS of CC1CCc2cc(F)cc3c(=O)c(C(=O)O)cn1c23 (configuration not stated) >= 30%
Found: not met

Lookup: # bool: chemical recovery into PDMS of Clc1cccc(Cl)c1NC1=NCCN1 >= 30%
Found: not met

Lookup: # bool: chemical recovery into PDMS of Clc1ccc2c(c1)CCc1cccnc1C2=C1CCNCC1 >= 30%
Found: not met

Lookup: # bool: chemical recovery into PDMS of O=C1Nc2ccc(Cl)cc2C(c2ccccc2Cl)=NC1O (configuration not stated) >= 30%
Found: not met

Lookup: # bool: chemical recovery into PDMS of NC(=O)c1ccc(N)cc1 [4-Aminobenzamide] >= 30%
Found: not met

Lookup: # bool: chemical recovery into PDMS of N#Cc1nn(-c2c(Cl)cc(C(F)(F)F)cc2Cl)c(N)c1SC(F)(F)F [Fipronil sulfide] >= 30%
Found: not met

Lookup: # bool: chemical recovery into PDMS of CC1CN(C2CCCCCCCCCCC2)CC(C)O1 (configuration not stated) >= 30%
Found: not met

Lookup: # bool: chemical recovery into PDMS of CCCCc1c(C)nc(NCC)nc1OS(=O)(=O)N(C)C [Bupirimate] >= 30%
Found: met

Lookup: # bool: chemical recovery into PDMS of CCOC(=O)c1ccc(N(C)C)cc1 [Ethyl 4-(dimethylamino)benzoate] >= 30%
Found: not met

Lookup: # bool: chemical recovery into PDMS of Clc1ccc(Cl)c(-c2ccccc2Cl)c1 >= 30%
Found: met
